Hello, the source for this data is patent US10202368B2, in case you need it.

Target: CXCR7 (Homo sapiens (Human), UniProt P25106)
Sequence (P25106 whole entry): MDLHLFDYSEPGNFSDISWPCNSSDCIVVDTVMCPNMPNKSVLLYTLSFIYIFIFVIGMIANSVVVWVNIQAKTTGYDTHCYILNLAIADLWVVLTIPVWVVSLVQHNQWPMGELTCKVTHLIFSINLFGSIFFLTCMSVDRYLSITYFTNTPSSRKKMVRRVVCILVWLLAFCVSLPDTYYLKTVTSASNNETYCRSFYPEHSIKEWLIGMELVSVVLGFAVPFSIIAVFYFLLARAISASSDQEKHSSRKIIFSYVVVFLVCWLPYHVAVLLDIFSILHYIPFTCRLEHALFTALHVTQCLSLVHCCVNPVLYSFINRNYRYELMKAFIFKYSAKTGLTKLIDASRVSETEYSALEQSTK
Sequence (P32121 whole entry partner): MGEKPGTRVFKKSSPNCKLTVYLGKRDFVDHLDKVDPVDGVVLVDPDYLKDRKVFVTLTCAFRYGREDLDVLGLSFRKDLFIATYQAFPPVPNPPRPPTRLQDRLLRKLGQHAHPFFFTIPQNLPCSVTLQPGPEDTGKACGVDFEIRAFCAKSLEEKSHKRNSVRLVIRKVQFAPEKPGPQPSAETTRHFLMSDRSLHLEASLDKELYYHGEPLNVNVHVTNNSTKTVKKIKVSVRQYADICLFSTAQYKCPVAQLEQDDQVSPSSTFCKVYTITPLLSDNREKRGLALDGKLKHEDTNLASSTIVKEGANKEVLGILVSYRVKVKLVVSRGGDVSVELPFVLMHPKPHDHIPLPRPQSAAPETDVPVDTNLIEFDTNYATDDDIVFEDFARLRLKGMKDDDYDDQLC
Assay: PathHunter CHO-K1 CXCR7 β-arrestin assay (agonistic activity)
Format: cell-based
Details: β-arrestin recruitment in PathHunter CHO-K1 CXCR7 β-arrestin cells, 90 minutes at 37° C., geometric mean values
Please use t for EC50 under 7 nM and f for everything else, ties included.

smiles.repr: CC(C)NCCN(Cc1ccccc1C(F)(F)F)C(=O)CNc1cccc2c1OCCN(CC1CC1)C2
assigned.class: t
//
smiles.repr: CNCCN(Cc1ccccc1C(F)(F)F)C(=O)CNc1cccc2c1C(=O)N(CC1CC1)CCO2
assigned.class: f
//
smiles.repr: CCCN1CCOc2c(cccc2NCC(=O)N(CCN(C)C)Cc2ncccc2Cl)C1
assigned.class: f
//
smiles.repr: CCN1CCN(CC)c2c(NCC(=O)N(CCN3CCCC3)Cc3ncccc3C(F)(F)F)cccc2C1=O
assigned.class: f
//
smiles.repr: CCN1CCOc2c(NCC(=O)N(CCN(C)C)Cc3ccccc3C(F)(F)F)cccc2C1=O
assigned.class: f
//
smiles.repr: CN(C)CCN(Cc1ccccc1C(F)(F)F)C(=O)CNc1cccc2c1CN(CC1CC1)CCO2
assigned.class: t

###

Target: CXCR7 (Homo sapiens (Human), UniProt P25106)
Test: PathHunter CHO-K1 CXCR7 β-arrestin assay (agonistic activity)
Conditions: β-arrestin recruitment in PathHunter CHO-K1 CXCR7 β-arrestin cells, 90 minutes at 37° C., geometric mean values
Description: The CXCI12 receptor and CXCR7 agonistic activities of the compounds of formula (I) are determined in accordance with the following experimental method. The assay is using the PathHunter™ CHO-K1 CXCR7 β-arrestin cell line from DiscoverX. The system is based on the Enzyme Fragment Complementation Technology. Two complementing fragments of the β-galactosidase enzyme are expressed within stably transfected cells. […]
pEC50: −log10 of the molar value.
Quick reference for pEC50 among some compounds

compound: CC(C)CN1CCOc2c(cccc2NCC(=O)N(CCN(C)C)Cc2ccc(F)cc2C(F)(F)F)C1 [Example 17]
pEC50: 7.23
//
compound: Cc1ccnc(CN(CCN(C)C)C(=O)CNc2cccc3c2OCCN(CC(C)C)C3)c1 [Example 14]
pEC50: 7.12
//
compound: CN(C)CCN(Cc1ccccc1C(F)(F)F)C(=O)CNc1cccc2c1CCCN(CC1CC1)C2 [Example 28]
pEC50: 8.52
//
compound: CCN1CCNc2c(cccc2NCC(=O)N(CCN(C)C)Cc2ccccc2C(F)(F)F)C1 [Example 21]
pEC50: 8.22
//
compound: CCN1CCOc2c(cccc2NCC(=O)N(CCN(C(=O)OC(C)(C)C)C(C)C)Cc2ccccc2C(F)(F)F)C1 [Example 69]
pEC50: 6.37
//
compound: CC(C)CN1CCOc2c(cccc2NCC(=O)N(CCN(C)C2CC2)Cc2ccccc2C(F)(F)F)C1 [Example 10]
pEC50: 7.24
//
compound: COc1ccnc(CN(CCN(C)C)C(=O)CNc2cccc3c2OCCN(CC(C)C)C3)c1 [Example 9]
pEC50: 6.70
//
compound: CC(C)(C)NCCN(Cc1ccccc1Cl)C(=O)CNc1cccc2c1CN(CC1CC1)CCO2 [Example 91]
pEC50: 8.10

###

Quick reference for pEC50 among some compounds
Target: CXCR7 (Homo sapiens (Human), UniProt P25106)
Experiment: PathHunter CHO-K1 CXCR7 β-arrestin assay (agonistic activity)
Settings: β-arrestin recruitment in PathHunter CHO-K1 CXCR7 β-arrestin cells, 90 minutes at 37° C., geometric mean values
pEC50: −log10 of the molar value.
readout.name: pEC50

smiles.repr: CC(C)NCCN(Cc1ccccc1C(F)(F)F)C(=O)CNc1cccc2c1OCCN(CC1CC1)C2=O
endpoint.value: 8.30

smiles.repr: CC(C)(C)NCCN(Cc1ccccc1C(F)(F)F)C(=O)CNc1cccc2c1OCCN(CC1CC1)C2
endpoint.value: 8.52

smiles.repr: CN(C)CCN(Cc1cccc(Cl)c1Cl)C(=O)CNc1cccc2c1C(=O)N(CC1CC1)CCO2
endpoint.value: 8.11

smiles.repr: CN1CCN(CC2CC2)Cc2cccc(NCC(=O)N(CCN3CCCC3)Cc3ncccc3C(F)(F)F)c21
endpoint.value: 9.00

smiles.repr: CN(C)CCN(Cc1cccc(Cl)c1Cl)C(=O)CNc1cccc2c1CN(CC1CC1)CCO2
endpoint.value: 7.82

smiles.repr: CCN1CCOc2c(cccc2NCC(=O)N(CCN2CCCC2)Cc2ncccc2C(F)(F)F)C1
endpoint.value: 8.30

smiles.repr: CCN1CCOc2c(cccc2NCC(=O)N(CCN(C)C(=O)OC(C)(C)C)Cc2ncccc2Cl)C1
endpoint.value: 6.62

smiles.repr: CC(C)NCCN(Cc1ccccc1C(F)(F)F)C(=O)CNc1cccc2c1OCC(=O)N(CC1CC1)C2
endpoint.value: 7.82

###

Target: CXCR7 (Homo sapiens (Human))
Test: PathHunter CHO-K1 CXCR7 β-arrestin assay (agonistic activity)
Settings: β-arrestin recruitment in PathHunter CHO-K1 CXCR7 β-arrestin cells, 90 minutes at 37° C., geometric mean values

compound: CC(C)CN1CCOc2c(cccc2NCC(=O)N(CCN(C)C)Cc2ncccc2C(F)(F)F)C1 [Example 2]
EC50 (nM): 3
--
compound: CC(C)NCCN(Cc1ccccc1C(F)(F)F)C(=O)CNc1cccc2c1C(=O)N(CC1CC1)CCO2 [Example 34]
EC50 (nM): 5
--
compound: CC(C)(C)NCCN(Cc1ccccc1C(F)(F)F)C(=O)CNc1cccc2c1OCC(=O)N(CC1CC1)C2 [Example 66]
EC50 (nM): 18
--
compound: CC(=O)N1CCOc2c(cccc2NCC(=O)N(CCN(C)C)Cc2ccccc2C(F)(F)F)C1 [Example 20]
EC50 (nM): 73

###

Quick reference for pEC50 among some compounds
Target: CXCR7 (Homo sapiens (Human))
Assay: PathHunter CHO-K1 CXCR7 β-arrestin assay (agonistic activity)
Details: β-arrestin recruitment in PathHunter CHO-K1 CXCR7 β-arrestin cells, 90 minutes at 37° C., geometric mean values
pEC50: −log10 of the molar value.
readout.name: pEC50

smiles.repr: O=C(CNc1cccc2c1OCCN(CC1CC1)C2)N(CCN1CCCC1)Cc1ncccc1C(F)(F)F
readout.name: pEC50
endpoint.value: 8.70
--
smiles.repr: CCN1CCOc2c(NCC(=O)N(CCN(C)C)Cc3ncccc3C(F)(F)F)cccc2C1=O
readout.name: pEC50
endpoint.value: 7.13
--
smiles.repr: Cc1cccnc1CN(CCN(C)C)C(=O)CNc1cccc2c1N(C)CCN(CC1CC1)C2=O
readout.name: pEC50
endpoint.value: 6.89
--
smiles.repr: CC(C)CN1CCOc2c(cccc2NCC(=O)N(CCN(C)C)Cc2c(F)cccc2F)C1
readout.name: pEC50
endpoint.value: 7.92

###

Quick reference for EC50 among some compounds
Target: CXCR7 (Homo sapiens (Human))
Test: PathHunter CHO-K1 CXCR7 β-arrestin assay (agonistic activity)
Settings: β-arrestin recruitment in PathHunter CHO-K1 CXCR7 β-arrestin cells, 90 minutes at 37° C., geometric mean values
Protocol: The CXCI12 receptor and CXCR7 agonistic activities of the compounds of formula (I) are determined in accordance with the following experimental method. The assay is using the PathHunter™ CHO-K1 CXCR7 β-arrestin cell line from DiscoverX. The system is based on the Enzyme Fragment Complementation Technology. Two complementing fragments of the β-galactosidase enzyme are expressed within stably transfected cells. […]

compound: COCC(=O)N1CCc2cccc(OCC(=O)N(CCN(C)C)Cc3ccccc3C(F)(F)F)c2CC1 [Example 24]
target.or.test.system: CXCR7 (Homo sapiens (Human))
EC50 / nM: 3
--
compound: CC(C)CN1CCOc2c(cccc2NCC(=O)N(CCN(C)C)Cc2cccc(Br)c2)C1 [Example 8]
target.or.test.system: CXCR7 (Homo sapiens (Human))
EC50 / nM: 36
--
compound: CCN1CCOc2c(cccc2NCC(=O)N(CCN2CCCC2)Cc2ncccc2Cl)C1 [Example 75]
target.or.test.system: CXCR7 (Homo sapiens (Human))
EC50 / nM: 19
--
compound: Cc1cccc(CN(CCN(C)C)C(=O)CNc2cccc3c2C(=O)N(CC2CC2)CCO3)n1 [Example 33]
target.or.test.system: CXCR7 (Homo sapiens (Human))
EC50 / nM: 24
--
compound: CC(C)CN1CCOc2c(cccc2NCC(=O)N(CCN(C)C)Cc2cccc(C(F)(F)F)c2)C1 [Example 18]
target.or.test.system: CXCR7 (Homo sapiens (Human))
EC50 / nM: 53
--
compound: CN(C)CCN(Cc1c(Cl)cccc1Cl)C(=O)CNc1cccc2c1C(=O)N(CC1CC1)CCO2 [Example 31]
target.or.test.system: CXCR7 (Homo sapiens (Human))
EC50 / nM: 27
--
compound: CN(C)CCN(Cc1ccccc1Cl)C(=O)CNc1cccc2c1CN(CC1CC1)CCO2 [Example 86]
target.or.test.system: CXCR7 (Homo sapiens (Human))
EC50 / nM: 14
--
compound: CN(C)CCN(Cc1ccccc1C(F)(F)F)C(=O)CNc1cccc2c1CCN(CC1CC1)CC2 [Example 27]
target.or.test.system: CXCR7 (Homo sapiens (Human))
EC50 / nM: 2
